- subject-of-test: PAD2 (Homo sapiens)
- Construct: made in house
- measurement-description: Inactivation kinetics, PAD2
- Type: biochemical
- condition-info: kinact/KI relative to least inhibited isozyme (1.0)
- Description: Inactivation kinetic parameters were determined by incubating PAD1, 2, or 4 (2.0 μM) or PAD3 (5.0 μM) in a pre-warmed (10 min; 37° C.) inactivation mixture (50 mM HEPES, 10 mM CaCl2, and 2 mM DTT, pH 7.6, with a final volume of 60 μL) containing various concentrations of inhibitor. […] After 15 min, reactions were quenched in liquid nitrogen and citrulline production quantified using the COLDER assay. […]
Recorded measurements of Fold PAD2 Selectivity, one per entry

smiles	unit-tag	Fold PAD2 Selectivity
CCn1c([C@H](CCCNC(=N)CF)NC(=O)c2ccc(-c3ccccc3)cc2)nc2ccccc21	fold	39
CCn1c([C@H](CCCNC(=N)CF)NC(=O)c2cccc3c2C(=O)NC3)nc2ccccc21	fold	56
CCN1Cc2cccc(C(=O)N[C@@H](CCCNC(=N)CF)c3nc4ccccc4n3C(C)C)c2C1=O	fold	22
COc1cccc2c1nc([C@H](CCCNC(=N)CF)NC(=O)c1ccccc1C(=O)O)n2C	fold	3.4

###

Recorded log10(kinact/KI) values for a group of compounds are listed next.
- subject-of-test: PAD2 (Homo sapiens, UniProt Q9Y2J8)
- Construct: made in house
- Sequence (Q9Y2J8 whole entry): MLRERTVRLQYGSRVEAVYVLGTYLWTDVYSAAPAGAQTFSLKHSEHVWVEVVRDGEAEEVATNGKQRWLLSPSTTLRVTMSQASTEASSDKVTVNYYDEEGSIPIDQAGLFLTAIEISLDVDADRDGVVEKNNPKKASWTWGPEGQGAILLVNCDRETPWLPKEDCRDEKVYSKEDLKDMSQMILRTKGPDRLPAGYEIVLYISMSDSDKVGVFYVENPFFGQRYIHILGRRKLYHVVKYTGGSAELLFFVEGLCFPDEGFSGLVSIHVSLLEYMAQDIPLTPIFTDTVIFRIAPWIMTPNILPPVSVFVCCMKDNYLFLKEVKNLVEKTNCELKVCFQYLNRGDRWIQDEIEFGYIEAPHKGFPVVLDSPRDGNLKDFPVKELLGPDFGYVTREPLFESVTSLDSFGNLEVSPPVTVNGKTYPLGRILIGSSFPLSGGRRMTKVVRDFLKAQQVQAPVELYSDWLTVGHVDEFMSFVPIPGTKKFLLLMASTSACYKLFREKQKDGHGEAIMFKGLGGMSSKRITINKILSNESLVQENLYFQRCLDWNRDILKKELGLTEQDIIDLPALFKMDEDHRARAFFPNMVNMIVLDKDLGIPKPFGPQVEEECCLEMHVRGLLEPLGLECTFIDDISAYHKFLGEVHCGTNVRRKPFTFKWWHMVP
- measurement-description: Inactivation kinetics, PAD2
- Type: biochemical
- condition-info: a: single kobs determined; b: from a linear fit; other footnotes: from kinact and KI
- Description: Inactivation kinetic parameters were determined by incubating PAD1, 2, or 4 (2.0 μM) or PAD3 (5.0 μM) in a pre-warmed (10 min; 37° C.) inactivation mixture (50 mM HEPES, 10 mM CaCl2, and 2 mM DTT, pH 7.6, with a final volume of 60 μL) containing various concentrations of inhibitor. […] After 15 min, reactions were quenched in liquid nitrogen and citrulline production quantified using the COLDER assay. […]
endpoint-label: log10(kinact/KI) (log10 of the value in M⁻¹ s⁻¹)

smiles	log10(kinact/KI)
N=C(CF)NCCC[C@H](NC(=O)c1ccc(-c2ccc(F)cc2)cc1)c1nc2ccccc2[nH]1	1.45
CCOc1cccc2c1nc([C@H](CCCNC(=N)CCl)NC(=O)c1cccc3c1C(=O)N(CC)C3)n2C	3.04
CCOc1cccc2c1nc([C@H](CCCNC(=N)CCl)NC(=O)c1cccc3c1C(=O)NC3)n2C	3.08
COc1cccc2c1nc([C@H](CCCNC(=N)CCl)NC(=O)c1ccc(-c3ccccc3)cc1)n2C	2.67
COc1cccc2c1nc([C@H](CCCNC(=N)CF)NC(=O)c1ccccc1C(=O)O)n2C	2.53
CC(C)n1c([C@H](CCCNC(=N)CF)NC(=O)c2ccccc2C(=O)O)nc2ccccc21	2.61
COc1ccc2c(c1)nc([C@H](CCCNC(=N)CF)NC(=O)c1cccc3c1C(=O)NC3)n2C	3.29
CCn1c([C@H](CCCNC(=N)CCl)NC(=O)c2cccc3c2C(=O)NC3)nc2c(OC)cccc21	2.82
N=C(CCl)NCCC[C@H](NC(=O)c1ccc(-c2ccc(F)cc2)cc1)c1nc2cc(F)c(F)cc2[nH]1	1.98
N=C(CCl)NCCC[C@H](NC(=O)c1ccc(-c2ccccc2)cc1)c1nc2cc(F)c(F)cc2[nH]1	1.97
CCN1Cc2cccc(C(=O)N[C@@H](CCCNC(=N)CCl)c3nc4c(OC)cccc4n3CC)c2C1=O	2.89
COc1ccc2[nH]c([C@H](CCCNC(=N)CCl)NC(=O)c3cccc4c3C(=O)NC4)nc2c1	3.00
N=C(CCl)NCCC[C@H](NC(=O)c1cccc2c1C(=O)NC2)c1nc2ccccc2[nH]1	3.04
CC(C)n1c([C@H](CCCNC(=N)CCl)NC(=O)c2ccc(-c3ccccc3)cc2)nc2ccccc21	1.39
CCN1Cc2cccc(C(=O)N[C@@H](CCCNC(=N)CCl)c3nc4ccccc4n3C(C)C)c2C1=O	2.44
CCN1Cc2cccc(C(=O)N[C@@H](CCCNC(=N)CF)c3nc4cc(OC)ccc4[nH]3)c2C1=O	2.35
CCN1Cc2cccc(C(=O)N[C@@H](CCCNC(=N)CF)c3nc4cc(OC)ccc4n3C)c2C1=O	3.35
CC(C)n1c([C@H](CCCNC(=N)CF)NC(=O)c2ccccc2C(=O)OC(C)(C)C)nc2ccccc21	1.70
CCOc1cccc2c1nc([C@H](CCCNC(=N)CF)NC(=O)c1cccc3c1C(=O)NC3)n2C	3.20
Cn1c([C@H](CCCNC(=N)CF)NC(=O)c2ccccc2C(=O)O)nc2ccccc21	2.29
CCn1c([C@H](CCCNC(=N)CCl)NC(=O)c2cccc3c2C(=O)NC3)nc2ccccc21	3.00
N=C(CF)NCCC[C@H](NC(=O)c1ccc(-c2ccccc2)cc1)c1nc2ccccc2[nH]1	1.30
C#Cc1ccc(-c2ccc(C(=O)N[C@@H](CCCNC(=N)CF)c3nc4ccccc4[nH]3)cc2)cc1	1.21
CCN1Cc2cccc(C(=O)N[C@@H](CCCNC(=N)CCl)c3nc4cc(OC)ccc4n3CC)c2C1=O	2.80
CCN1Cc2cccc(C(=O)N[C@@H](CCCNC(=N)CCl)c3nc4cc(OC)ccc4n3C)c2C1=O	3.01

###

- subject-of-test: PAD4 (Homo sapiens, UniProt Q9UM07)
- Construct: made in house
- Sequence (Q9UM07 whole entry): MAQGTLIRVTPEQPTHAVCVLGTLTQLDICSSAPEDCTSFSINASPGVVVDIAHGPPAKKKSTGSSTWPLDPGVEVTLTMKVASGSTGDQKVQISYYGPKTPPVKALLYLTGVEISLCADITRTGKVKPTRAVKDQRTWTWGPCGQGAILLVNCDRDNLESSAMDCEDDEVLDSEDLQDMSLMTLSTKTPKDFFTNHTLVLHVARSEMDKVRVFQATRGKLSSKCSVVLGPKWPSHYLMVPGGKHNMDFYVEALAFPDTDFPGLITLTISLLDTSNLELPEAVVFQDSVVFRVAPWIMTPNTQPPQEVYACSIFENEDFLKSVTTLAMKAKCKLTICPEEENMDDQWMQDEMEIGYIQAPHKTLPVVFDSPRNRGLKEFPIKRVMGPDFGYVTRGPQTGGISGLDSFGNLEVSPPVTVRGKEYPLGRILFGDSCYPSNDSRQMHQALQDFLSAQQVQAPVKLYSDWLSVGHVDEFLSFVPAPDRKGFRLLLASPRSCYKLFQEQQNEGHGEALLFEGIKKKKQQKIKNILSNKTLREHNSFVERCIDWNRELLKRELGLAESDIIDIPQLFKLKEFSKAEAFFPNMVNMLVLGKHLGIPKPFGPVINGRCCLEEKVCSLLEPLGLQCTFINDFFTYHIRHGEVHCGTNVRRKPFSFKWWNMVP
- measurement-description: Inactivation kinetics, PAD4
- Assay type: biochemical
- condition-info: kinact/KI relative to least inhibited isozyme (1.0)

compound	unit-tag	Fold PAD4 Selectivity
Cn1c([C@H](CCCNC(=N)CF)NC(=O)c2ccccc2C(=O)OC(C)(C)C)nc2ccccc21 [Compound 9a]	fold	2.0
CCN1Cc2cccc(C(=O)N[C@@H](CCCNC(=N)CCl)c3nc4ccccc4n3C(C)C)c2C1=O [Compound 8h]	fold	1.0
Cn1c([C@H](CCCNC(=N)CCl)NC(=O)c2ccccc2C(=O)OC(C)(C)C)nc2ccccc21 [Compound 9b]	fold	1.2
COc1cccc2c1nc([C@H](CCCNC(=N)CF)NC(=O)c1cccc3c1C(=O)NC3)n2C [Compound 7k]	fold	3.2
CCn1c([C@H](CCCNC(=N)CF)NC(=O)c2ccc(-c3ccccc3)cc2)nc2ccccc21 [Compound 5i]	fold	1.0
N=C(CCl)NCCC[C@H](NC(=O)c1ccccc1)c1nc2ccccc2[nH]1 [Compound 5b]	fold	31
N=C(CF)NCCC[C@H](NC(=O)c1cccc2c1C(=O)NC2)c1nc2ccccc2[nH]1 [Compound 7a]	fold	10
Cn1c([C@H](CCCNC(=N)CF)NC(=O)c2ccccc2C(=O)O)nc2ccccc21 [Compound 6c]	fold	1.0
CCOc1cccc2c1nc([C@H](CCCNC(=N)CF)NC(=O)c1cccc3c1C(=O)N(CC)C3)n2C [Compound 8m]	fold	1.0
CCN1Cc2cccc(C(=O)N[C@@H](CCCNC(=N)CCl)c3nc4c(OC)cccc4n3C)c2C1=O [Compound 8l]	fold	1.3
CC(C)n1c([C@H](CCCNC(=N)CCl)NC(=O)c2ccccc2C(=O)O)nc2ccccc21 [Compound 6h]	fold	1.0
CCn1c([C@H](CCCNC(=N)CF)NC(=O)c2cccc3c2C(=O)NC3)nc2cc(OC)ccc21 [Compound 7u]	fold	1.0
COc1cccc2[nH]c([C@H](CCCNC(=N)CCl)NC(=O)c3cccc4c3C(=O)NC4)nc12 [Compound 7j]	fold	1.0
CCN1Cc2cccc(C(=O)N[C@@H](CCCNC(=N)CF)c3nc4c(OC)cccc4n3C)c2C1=O [Compound 8k]	fold	1.0
COc1cccc2c1nc([C@H](CCCNC(=N)CCl)NC(=O)c1ccc(-c3ccccc3)cc1)n2C [Compound 5n]	fold	1.4
CCN1Cc2cccc(C(=O)N[C@@H](CCCNC(=N)CF)c3nc4ccccc4n3C)c2C1=O [Compound 8c]	fold	1.0
COc1cccc2c1nc([C@H](CCCNC(=N)CCl)NC(=O)c1ccccc1C(=O)O)n2C [Compound 6j]	fold	1.5
COc1cccc2c1nc([C@H](CCCNC(=N)CF)NC(=O)c1cccc3c1C(=O)N(C1CC1)C3)n2C [Compound 8s]	fold	3.8
Cn1c([C@H](CCCNC(=N)CCl)NC(=O)c2ccccc2C(=O)O)nc2ccccc21 [Compound 6d]	fold	1.0
CCN1Cc2cccc(C(=O)N[C@@H](CCCNC(=N)CCl)c3nc4ccccc4[nH]3)c2C1=O [Compound 8b]	fold	1.4
CCn1c([C@H](CCCNC(=N)CF)NC(=O)c2cccc3c2C(=O)NC3)nc2ccccc21 [Compound 7e]	fold	1.7
COc1cccc2c1nc([C@H](CCCNC(=N)CCl)NC(=O)c1cccc3c1C(=O)N(C(C)C)C3)n2C [Compound 8r]	fold	1.0
Cn1c([C@H](CCCNC(=N)CCl)NC(=O)c2cccc3c2C(=O)NC3)nc2ccccc21 [Compound 7d]	fold	1.0
CCOc1cccc2c1nc([C@H](CCCNC(=N)CCl)NC(=O)c1cccc3c1C(=O)N(CC)C3)n2C [Compound 8n]	fold	1.0
N=C(CF)NCCC[C@H](NC(=O)c1ccccc1C(=O)O)c1nc2ccccc2[nH]1 [Compound 6a]	fold	16
CCn1c([C@H](CCCNC(=N)CF)NC(=O)c2ccccc2C(=O)O)nc2ccccc21 [Compound 6e]	fold	1.0
CCN1Cc2cccc(C(=O)N[C@@H](CCCNC(=N)CCl)c3nc4ccccc4n3CC)c2C1=O [Compound 8f]	fold	1.0
COc1cccc2c1nc([C@H](CCCNC(=N)CCl)NC(=O)c1cccc3c1C(=O)N(C1CC1)C3)n2C [Compound 8t]	fold	1.0
N=C(CF)NCCC[C@H](NC(=O)c1ccccc1)c1nc2ccccc2[nH]1 [Compound 5a]	fold	18
CCN1Cc2cccc(C(=O)N[C@@H](CCCNC(=N)CCl)c3nc4c(OC)cccc4n3CC)c2C1=O [Compound 8v]	fold	1.0
C#Cc1ccc(-c2ccc(C(=O)N[C@@H](CCCNC(=N)CF)c3nc4ccccc4[nH]3)cc2)cc1 [Compound 5u]	fold	1.8
